Tested on: Monocotyledonous and dicotyledonous test plants
procedure summary: Example B1: herbicidal action prior to emergence (pre-emergence), 500 g/ha
Assay type: in vivo
assay conditions: Echinochloa crus-galli (barnyard grass), 13 days after application, 0 = no damage, 100 = plants completely dead
measurement label: ECHCG herbicidal effect (visual assessment, percentage scale) (%)
The figure you give is taken to be in %; do not add the unit.

The molecule Cn1nc(C(F)(F)F)c(C[S+]([O-])c2ncc(Br)s2)c1F (racemic) on Monocotyledonous and dicotyledonous test plants: ECHCG herbicidal effect (visual assessment, percentage scale) was 95

Result for Cn1nc(C(F)(F)F)c(CSc2ncc(Cl)s2)c1OC(F)F , tested on Monocotyledonous and dicotyledonous test plants, ECHCG herbicidal effect (visual assessment, percentage scale): 95

Observed ECHCG herbicidal effect (visual assessment, percentage scale) on Monocotyledonous and dicotyledonous test plants, entry Cn1nc(C(F)(F)F)c(C[S+]([O-])c2ncc(Cl)s2)c1Cl (racemic) , equals 95

ECHCG herbicidal effect (visual assessment, percentage scale) on Monocotyledonous and dicotyledonous test plants for Cn1nc(C(F)(F)F)c(C(F)(F)S(=O)(=O)c2ncc(Cl)s2)c1OCC(F)(F)F is 95

Entry Cn1nc(C(F)(F)F)c(CSc2ncc(Cl)s2)c1F , Monocotyledonous and dicotyledonous test plants data, ECHCG herbicidal effect (visual assessment, percentage scale) value: 95

Bench note, Monocotyledonous and dicotyledonous test plants: entry Cn1nc(C(F)(F)F)c(C[S+]([O-])c2ncc(Cl)s2)c1OC(F)F (racemic) , its ECHCG herbicidal effect (visual assessment, percentage scale) = 95

// ECHCG herbicidal effect (visual assessment, percentage scale) (Monocotyledonous and dicotyledonous test plants) for Cn1nc(C(F)(F)F)c(CS(=O)(=O)c2nc(Br)cs2)c1OCC(F)(F)F = 0

So the reported ECHCG herbicidal effect (visual assessment, percentage scale) for Cn1nc(C(F)(F)F)c(C[S+]([O-])c2ncc(Cl)s2)c1OCC(F)(F)F (racemic) , on Monocotyledonous and dicotyledonous test plants, turned out to be 95

Response field ECHCG herbicidal effect (visual assessment, percentage scale) (Monocotyledonous and dicotyledonous test plants) for item CC(c1c(C(F)(F)F)nn(C)c1OCC(F)(F)F)S(=O)(=O)c1ncc(Cl)s1 (racemic) : 95

For the molecule Cn1nc(C(F)(F)F)c(CS(=O)(=O)c2ncc(Cl)s2)c1F , the measured ECHCG herbicidal effect (visual assessment, percentage scale) on Monocotyledonous and dicotyledonous test plants was 95

Reported ECHCG herbicidal effect (visual assessment, percentage scale) (Monocotyledonous and dicotyledonous test plants) for entry Cn1nc(C(F)(F)F)c(CSc2ncc(Br)s2)c1F is 80

The molecule Cn1nc(C(F)(F)F)c(C(Cl)S(=O)(=O)c2ncc(Br)s2)c1OCC(F)(F)F (racemic) , when measured on Monocotyledonous and dicotyledonous test plants, yielded ECHCG herbicidal effect (visual assessment, percentage scale) of 95

The molecule Cn1nc(OC(F)F)c(CS(=O)(=O)c2ncc(Cl)s2)c1C(F)(F)F , when measured on Monocotyledonous and dicotyledonous test plants, yielded ECHCG herbicidal effect (visual assessment, percentage scale) of 100

Form: item Cn1nc(C(F)(F)F)c(CS(=O)(=O)c2ncc(Cl)s2)c1OCC(F)(F)F ; test system Monocotyledonous and dicotyledonous test plants; ECHCG herbicidal effect (visual assessment, percentage scale): 95

Tested system Monocotyledonous and dicotyledonous test plants; ECHCG herbicidal effect (visual assessment, percentage scale) recorded for Cn1nc(C(F)(F)F)c(CS(=O)(=O)c2nccs2)c1OCC(F)(F)F was 95

Log: Monocotyledonous and dicotyledonous test plants, molecule Cn1nc(C(F)(F)F)c(CSc2ncc(Br)s2)c1Cl , ECHCG herbicidal effect (visual assessment, percentage scale) = 95

Bench note, Monocotyledonous and dicotyledonous test plants: entry Cn1nc(OC(F)F)c(C[S+]([O-])c2ncc(Cl)s2)c1C(F)(F)F (racemic) , its ECHCG herbicidal effect (visual assessment, percentage scale) = 95
